molecular target: OR3A1 (Homo sapiens) (UniProt P47881); details: stereoisomer not certain
Sequence (P47881 whole entry): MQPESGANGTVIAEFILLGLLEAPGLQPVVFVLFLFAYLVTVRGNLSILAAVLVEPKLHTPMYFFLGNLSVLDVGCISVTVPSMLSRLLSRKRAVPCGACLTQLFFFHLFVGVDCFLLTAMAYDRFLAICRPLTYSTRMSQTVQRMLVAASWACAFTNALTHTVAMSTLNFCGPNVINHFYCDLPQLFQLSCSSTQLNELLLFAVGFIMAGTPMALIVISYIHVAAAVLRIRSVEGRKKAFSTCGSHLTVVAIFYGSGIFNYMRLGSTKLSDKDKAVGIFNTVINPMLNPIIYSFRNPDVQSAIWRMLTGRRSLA
The reply should be one of these categories: active, inactive

For orientation, consider the following solved cases.
What is the recorded call for this molecule in the test? COc1ccc(CC(C)C=O)cc1 (stereo not drawn) active

Could you check what this test reported for CCC1OC(C)=C(O)C1=O (stereo not drawn) ? inactive

Each molecule tested received a call. Report the one for CC1CCCCCCCCCCCCC(=O)C1 (stereo not drawn) . inactive

Could you kindly confirm the outcome this assay logged for CC(CC=O)CCc1ccccc1 (stereo not drawn) ? active

For OCCc1ccccc1 , which call appears in the assay record? inactive

For OCC=Cc1ccccc1 , what call appears in the results of this test? inactive

Assay outcome for Cc1cnc(C)c(C)n1 : what was it? inactive

Now for another entry.
# outcome recorded in this test, key = CC1=C(O)C(=O)OC1C (stereo not drawn) inactive
